- PROTOCOL SUMMARY: Lipophilicity, log P of the compound
- Assay type: physicochemical
- ASSAY CONDITIONS: octanol/water
READOUT: logP

(Q) State its logP for this compound: N#Cc1c(NCCN2CCNCC2)sc(C(=O)c2ccc(Br)s2)c1N
(A) 3

###

- PROTOCOL SUMMARY: Stability in mouse liver microsomes assessed as parent compound remaining after 1 hr
- Format: ADME, Microsome
- ASSAY CONDITIONS: read-out: Stability
READOUT: remaining at 1 h
The reply should consist of the numeric value with the unit placed after it.

(Q) State its remaining at 1 h for this compound: N#Cc1c(NCCN2CCNCC2)sc(C(=O)c2ccc(Br)s2)c1N
(A) 81%

###

Kindly supply the reported log10(IC50) values for the records listed here.
- TARGET DESC: UniProt:Q14680
- PROTOCOL SUMMARY: Inhibition of recombinant human MELK expressed in Escherichia coli using ZIPtide as substrate measured after 0.5 hrs by ADP-Glo assay
Units before log transform: nM; reported quantity: IC50; transform: log10.

Reference set (5 entries):
{"columns": ["STRUCTURE", "OBSERVED MEASUREMENT"],
 "data": [
  ["Cc1ccc(C(=O)c2sc(NC(C)C)c(C#N)c2N)s1", 2.69],
  ["CC(C)Nc1sc(C(=O)c2cc(Cl)cs2)c(N)c1C#N", 2.76],
  ["CC(C)Nc1sc(C(=O)c2cc(Br)cs2)c(N)c1C#N", 2.78],
  ["CC(C)Nc1sc(C(=O)c2ccc(Br)s2)c(N)c1C#N", 2.09],
  ["CC(C)Nc1sc(C(=O)c2ccn[nH]2)c(N)c1C#N", 3.23]
]}

Could you report log10(IC50) for every entry in the following list?
1. CC(C)Nc1sc(C(=O)c2ccc(Cl)s2)c(N)c1C(N)=O
2. CC(C)Nc1sc(C(=O)c2ccc(Cl)s2)c(N)c1C#N
3. COc1ccc(C(=O)c2sc(NC(C)C)c(C#N)c2N)cc1
4. N#Cc1c(Nc2ccccc2F)sc(C(=O)c2ccc(Cl)s2)c1N
5. N#Cc1c(NCC(N)=O)sc(C(=O)c2ccc(Br)s2)c1N

(A)
2.59
2.28
3.62
2.85
2.73

###

- PROTOCOL SUMMARY: Kinetic solubility of the compound in pH 7.4 phosphate buffer
- Type: physicochemical
- ASSAY CONDITIONS: read-out: Kinetic_solubility
READOUT: solubility kinetic (µg/mL)
Answers are plain numbers, in µg/mL.

(Q) State its solubility kinetic for this molecule: N#Cc1c(NCCN2CCNCC2)sc(C(=O)c2ccc(Br)s2)c1N
(A) 189

###

- TARGET DESC: Maternal embryonic leucine zipper kinase (Homo sapiens, UniProt Q14680)
- Sequence (Q14680 whole entry): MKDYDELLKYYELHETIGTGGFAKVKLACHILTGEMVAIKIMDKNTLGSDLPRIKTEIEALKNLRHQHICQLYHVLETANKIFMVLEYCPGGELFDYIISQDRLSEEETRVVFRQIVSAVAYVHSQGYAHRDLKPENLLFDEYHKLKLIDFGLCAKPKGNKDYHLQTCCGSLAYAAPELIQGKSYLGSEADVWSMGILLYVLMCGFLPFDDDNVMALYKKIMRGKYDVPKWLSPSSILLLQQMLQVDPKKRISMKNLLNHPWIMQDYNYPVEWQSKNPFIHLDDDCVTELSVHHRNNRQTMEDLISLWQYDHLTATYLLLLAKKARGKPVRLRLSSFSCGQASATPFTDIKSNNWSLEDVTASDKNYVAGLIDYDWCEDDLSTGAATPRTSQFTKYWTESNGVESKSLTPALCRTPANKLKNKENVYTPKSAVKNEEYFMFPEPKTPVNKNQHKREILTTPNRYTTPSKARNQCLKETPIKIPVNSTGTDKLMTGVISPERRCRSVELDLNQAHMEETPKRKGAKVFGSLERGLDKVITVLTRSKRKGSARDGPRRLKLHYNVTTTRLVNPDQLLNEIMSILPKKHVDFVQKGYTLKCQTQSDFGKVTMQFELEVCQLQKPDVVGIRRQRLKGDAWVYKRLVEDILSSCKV
- PROTOCOL SUMMARY: Inhibition of recombinant human MELK expressed in Escherichia coli using ZIPtide as substrate measured after 0.5 hrs by ADP-Glo assay
READOUT: pIC50
Numbers only, as −log10 of the molar value.

Reference set (3 entries):
{"columns": ["STRUCTURE", "pIC50"],
 "data": [
  ["CC(C)Nc1sc(C(=O)c2ccc(-c3ccncc3)s2)c(N)c1C#N", 6.57],
  ["COc1ccc(C(=O)c2sc(NC(C)C)c(C#N)c2N)cc1OC", 5.75],
  ["N#Cc1c(NCCO)sc(C(=O)c2ccc(Br)s2)c1N", 6.50]
]}

Could you report pIC50 for every entry in the following list?
1. N#Cc1c(NCCCN)sc(C(=O)c2ccc(Br)s2)c1N
2. CCNc1sc(C(=O)c2cccs2)c(N)c1C#N
3. CC(C)Nc1sc(C(=O)c2ccc(-c3ccc(O)cc3)s2)c(N)c1C#N
4. CCNc1sc(C(=O)c2ccc(Cl)s2)c(N)c1C#N
5. N#Cc1c(NCCN2CCNCC2)sc(C(=O)c2ccc(Br)s2)c1N
6. CC(C)Nc1sc(C(=O)c2ccc(-c3cccc(O)c3)s2)c(N)c1C#N

(A)
6.85
5.93
6.62
6.65
7.01
6.46

(Q) Retrieve pIC50 on Maternal embryonic leucine zipper kinase (Homo sapiens, UniProt Q14680); query CC(C)Nc1sc(C(=O)c2ccc3c(c2)OCO3)c(N)c1C#N
(A) 5.95

###

Kindly supply the reported pIC50 values for the records listed here.
- TARGET DESC: Maternal embryonic leucine zipper kinase (Homo sapiens, UniProt Q14680)
- PROTOCOL SUMMARY: Inhibition of recombinant human MELK expressed in Escherichia coli using ZIPtide as substrate measured after 0.5 hrs by ADP-Glo assay
pIC50: −log10 of the molar value.

Reference set (2 entries):
{"columns": ["STRUCTURE", "READOUT", "OBSERVED MEASUREMENT"],
 "data": [
  ["N#Cc1c(NCc2ccccc2)sc(C(=O)c2ccc(Cl)s2)c1N", "pIC50", "< 5.30"],
  ["CC(C)Nc1sc(C(=O)c2cccnc2)c(N)c1C#N", "pIC50", "< 5.30"]
]}

Could you report pIC50 for every entry in the following list?
1. CC(C)Nc1nc(N)c(C(=O)c2ccc(Cl)s2)s1
2. C=CCNc1sc(C(=O)C(C)(C)C)c(N)c1C#N
3. N#Cc1ccccc1Nc1sc(C(=O)c2ccc(Br)s2)c(N)c1C#N
4. CC(=O)c1sc(NC(C)C)c(C#N)c1N
5. CC(C)Nc1sc(C(=O)c2ccc(C#N)cc2)c(N)c1C#N
6. CC(C)Nc1sc(C(=O)c2cccc(C#N)c2)c(N)c1C#N

(A)
1: < 5.30; 2: < 5.30; 3: < 5.30; 4: < 5.30; 5: < 5.30; 6: < 5.30

Could you report pIC50 for every entry in the following list?
1. COc1ccc(C(=O)c2sc3nc(C)ccc3c2N)cc1OC
2. C=CCNc1sc(C(=O)c2ccc(Cl)s2)c(N)c1C#N
3. CC(C)Nc1sc(C(=O)c2ccc(Cl)s2)cc1C#N
4. CC(C)Nc1sc(C(=O)c2ccco2)c(N)c1C#N
5. Cc1ccc(C(=O)c2sc3nc(C)ccc3c2N)cc1
6. CC(C)N(C)c1sc(C(=O)c2ccc(Cl)s2)c(N)c1C#N
7. CC(C)Nc1sc(C(=O)c2ccc(I)s2)c(N)c1C#N

(A)
< 5.30
6.20
< 5.30
5.87
< 5.30
5.85
6.95
